# key: entry, value: Selective index, KB
tested on: KB (human mouth epidermal carcinoma) cell line; experiment: MTT cytotoxicity assay, KB cells; conditions: ratio IC50 in Hek-293 to IC50 in KB
Give your answer as a number; write no unit.

1. Cc1c2ccncc2c(C)c2c1[nH]c1ccccc12 [Ellipticine, ellipticine, reference compound] ... 2.88
2. Cc1c(C2C3=C(COC3=O)NC3=C2C(=O)c2ccccc2C3=O)cnn1C (stereo not shown) [Compound 13i] ... 1.14
3. O=C1OCC2=C1C(c1ncccc1F)C1=C(N2)C(=O)c2ccccc2C1=O (stereo not shown) [Compound 13l] ... 2.18

Lookup: For the compound O=C1OCC2=C1C(c1csc3ccccc13)C1=C(N2)C(=O)c2ccccc2C1=O (stereo not shown) [Compound 13e] , what Selective index, KB is on record?
Found: 1.02
